protein stability index for assorted sequences
EXPERIMENT_NOTES: protein stability index of a GFP-peptide fusion (yeast GPS) (PSI 1-4); higher = more stable; sorted into four equal gates, so the index is relative within each strain
MEASUREMENT_CONTEXT: pdr5∆

{"SEQUENCE_ENTRY": "FSISYKPPTQKTDTKVS [SRP21]", "protein stability index": 2.15}
{"SEQUENCE_ENTRY": "QDKDAIRKQPDDIINND [SIR2]", "protein stability index": 2.63}
{"SEQUENCE_ENTRY": "STTTSVNGSTTAGVGST [SIN4]", "protein stability index": 2.99}
{"SEQUENCE_ENTRY": "IAKSQDKKSCSVDDVLS [DPB4]", "protein stability index": 3.15}
{"SEQUENCE_ENTRY": "VMEIGKDAEYLRNYLTP [PUP1]", "protein stability index": 2.85}
{"SEQUENCE_ENTRY": "NVHGSLEPFLLMLEDTD [BRR2]", "protein stability index": 2.63}
{"SEQUENCE_ENTRY": "QQAQSFVGKKNTIGSVH [SSN3]", "protein stability index": 3.12}
{"SEQUENCE_ENTRY": "DRINYTETALMNLKKEL [SRB5]", "protein stability index": 3.28}
{"SEQUENCE_ENTRY": "SPFGGSSHAKGIVLEKL [RPS23A]", "protein stability index": 3.14}
{"SEQUENCE_ENTRY": "HDEKSDSLNEWIKFDQE [RPN7]", "protein stability index": 3.29}
{"SEQUENCE_ENTRY": "ERSELLRLFNAPDSEYL [SNF2]", "protein stability index": 2.8}
{"SEQUENCE_ENTRY": "PPGTGKTLCARAVANRT [RPT1]", "protein stability index": 1.25}
{"SEQUENCE_ENTRY": "LHQHVVLKCLKSLESQR [RPC34]", "protein stability index": 2.58}
{"SEQUENCE_ENTRY": "LTSNLSNYSRTMTISHL [YJL039C/NUP192]", "protein stability index": 2.32}

----------
EXPERIMENT_NOTES: protein stability index of a GFP-peptide fusion (yeast GPS) (PSI 1-4); higher = more stable; sorted into four equal gates, so the index is relative within each strain
MEASUREMENT_CONTEXT: san1∆

{"SEQUENCE_ENTRY": "GVANTDTAGEESQQQDE [SWI3]", "protein stability index": 3.33}
{"SEQUENCE_ENTRY": "STTTSVNGSTTAGVGST [SIN4]", "protein stability index": 3.07}
{"SEQUENCE_ENTRY": "RGVRPYKHIDASGSINR [RPS19A]", "protein stability index": 3.1}
{"SEQUENCE_ENTRY": "EKASRQQRKQKKNRDKK [RPS24A]", "protein stability index": 3.25}
{"SEQUENCE_ENTRY": "FSISYKPPTQKTDTKVS [SRP21]", "protein stability index": 1.98}
{"SEQUENCE_ENTRY": "CDSYLDADKELSFEINV [BRR2]", "protein stability index": 2.92}
{"SEQUENCE_ENTRY": "NLQQDKTNFQDVILDYQ [REC8]", "protein stability index": 3.4}
{"SEQUENCE_ENTRY": "EFYNEMHRPVHFLQFSE [PRP8]", "protein stability index": 2.27}
{"SEQUENCE_ENTRY": "SETPLQKTVNLKNIMKV [RPN4]", "protein stability index": 2.56}
{"SEQUENCE_ENTRY": "DTKNLYVIKALQSLTSK [RPS10A]", "protein stability index": 1.3}
{"SEQUENCE_ENTRY": "FICTTFRTDMLQVADKF [SMC3]", "protein stability index": 1.6}
{"SEQUENCE_ENTRY": "IGVIQLAHYVVTAKLLG [FAS1]", "protein stability index": 1.24}
{"SEQUENCE_ENTRY": "VVNQPTGKIVDVVGTLS [FAS1]", "protein stability index": 3.49}
{"SEQUENCE_ENTRY": "IGAELKREESESAAVYN [SNF2]", "protein stability index": 2.84}
{"SEQUENCE_ENTRY": "KGNFRTKPFENVEKYPT [SNU114]", "protein stability index": 3.16}
{"SEQUENCE_ENTRY": "KAELIKPIQNGEIIDIS [ARP9]", "protein stability index": 3.33}
{"SEQUENCE_ENTRY": "SRVINVVRAASSLASQD [RRP6]", "protein stability index": 2.57}
{"SEQUENCE_ENTRY": "IRKLLEKINRMIIFLKN [CSI1]", "protein stability index": 1.31}
{"SEQUENCE_ENTRY": "LSYISALGMMTRISSQF [RET1]", "protein stability index": 1.43}
{"SEQUENCE_ENTRY": "LFQDGSASLHTRSLKYG [RRP4]", "protein stability index": 2.59}
{"SEQUENCE_ENTRY": "VISMFVLPIFTTVFFSR [YML031W/NDC1]", "protein stability index": 1.17}
{"SEQUENCE_ENTRY": "KIPDTYTANTSAQSIAS [YAR002W/NUP60]", "protein stability index": 2.07}
{"SEQUENCE_ENTRY": "ELMKLDGTEYVLSSVRE [MED6]", "protein stability index": 3.16}
{"SEQUENCE_ENTRY": "PLILTPPQLANQQQPPQ [SNF11]", "protein stability index": 2.04}
{"SEQUENCE_ENTRY": "TLEDKFLLLAVNKYGLR [ISW2]", "protein stability index": 1.9}
{"SEQUENCE_ENTRY": "SQTPSFNTNSSFTPSTV [YOR098C/NUP1]", "protein stability index": 2.52}
{"SEQUENCE_ENTRY": "QQENSKSGKRKPNIILD [RPC31]", "protein stability index": 2.64}
{"SEQUENCE_ENTRY": "RMSYGSHDKKTKCSTVV [SRP14]", "protein stability index": 3.19}
{"SEQUENCE_ENTRY": "NNQSKEKADYEDEMMHE [RPN12]", "protein stability index": 2.67}
{"SEQUENCE_ENTRY": "KRSDLTGANSIYSVEKK [UBP6]", "protein stability index": 2.57}
